Source of measurements: patent US7807679B2

Parameter: melting point

INSERT INTO assay_data (mol_smiles, parameter, test_value) VALUES
  ('O=C1N(Cc2cnc(Cl)s2)CCN1c1ccc(F)cc1N1CCN(C/C=C/c2ccc(Cl)cc2)CC1', 'melting point', '72 to 77 °C'),
  ('Cc1nn(C)c(N2CCN(C/C=C/c3ccc(Cl)cc3)CC2)c1NC(=O)c1ccnc(Cl)c1', 'melting point', '85 to 88 °C'),
  ('CN1CCN(c2cc(Cl)ccc2NC(=O)c2ccnc(Cl)c2)CC1', 'melting point', '118 to 120 °C'),
  ('COCCCNC(=O)Nc1ccc(F)cc1N1CCN(C/C=C/c2ccc(Cl)cc2)CC1', 'melting point', '86 to 90 °C'),
  ('O=C(Nc1cnc(Cl)nc1N1CCN(C/C=C/c2ccc(OC(F)(F)F)cc2)CC1)c1ccnc(Cl)c1', 'melting point', '210 to 211 °C'),
  ('CN(C(=O)c1ccnc(Cl)c1)c1ccccc1N1CCN(C/C=C/c2ccc(Cl)cc2)CC1', 'melting point', '117 to 120 °C'),
  ('O=C(Nc1c(Cl)cc(Cl)cc1N1CCN(C/C=C/c2ccc(Cl)cc2)CC1)c1ccnc(Cl)c1', 'melting point', '79 to 80 °C');
